Biological target: α4β1 receptors (Mus musculus, UniProt P50571+Q9D6F4)
Construct: expressed in transfected cells; host or cells: Xenopus laevis oocytes, cDNA-injected (pRK5 vector), ratio 1:1
Sequence (Q9D6F4 36-552): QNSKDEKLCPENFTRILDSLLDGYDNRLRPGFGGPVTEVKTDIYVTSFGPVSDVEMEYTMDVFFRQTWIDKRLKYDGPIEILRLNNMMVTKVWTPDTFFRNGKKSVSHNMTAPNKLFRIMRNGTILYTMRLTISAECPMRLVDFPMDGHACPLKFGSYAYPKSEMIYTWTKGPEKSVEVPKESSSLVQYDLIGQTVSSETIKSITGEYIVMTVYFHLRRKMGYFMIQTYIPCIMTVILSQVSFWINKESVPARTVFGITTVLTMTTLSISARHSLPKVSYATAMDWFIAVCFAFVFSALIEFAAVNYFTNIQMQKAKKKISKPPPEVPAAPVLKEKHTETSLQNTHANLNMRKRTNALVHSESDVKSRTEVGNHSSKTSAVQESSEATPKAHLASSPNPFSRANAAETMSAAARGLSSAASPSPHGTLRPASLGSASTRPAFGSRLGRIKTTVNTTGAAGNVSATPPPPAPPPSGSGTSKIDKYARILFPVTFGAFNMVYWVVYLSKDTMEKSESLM
Sequence (P50571 26-474): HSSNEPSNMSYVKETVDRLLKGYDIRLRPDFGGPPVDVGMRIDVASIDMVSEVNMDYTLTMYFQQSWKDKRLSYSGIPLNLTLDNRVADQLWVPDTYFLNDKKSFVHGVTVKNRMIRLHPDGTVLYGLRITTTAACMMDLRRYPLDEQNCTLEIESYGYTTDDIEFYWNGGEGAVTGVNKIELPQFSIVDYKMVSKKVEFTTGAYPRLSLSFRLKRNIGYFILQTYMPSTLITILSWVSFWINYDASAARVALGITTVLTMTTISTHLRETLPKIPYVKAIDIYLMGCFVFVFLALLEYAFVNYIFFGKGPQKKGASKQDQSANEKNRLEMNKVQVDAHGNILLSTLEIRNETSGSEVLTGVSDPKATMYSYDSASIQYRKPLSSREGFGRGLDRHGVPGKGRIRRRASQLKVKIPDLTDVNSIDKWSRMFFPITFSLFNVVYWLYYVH
Test: Two-electrode voltage-clamp of murine α4β1 GABAA receptors expressed in Xenopus oocytes
Type: cell-based
Settings: GABA EC75 (8 μM); high potency component of two-site fit; read-out: IC50A
property: IC50
Your reply should be a number followed by the unit it is expressed in.

Sample [Cl-].[Cl-].[Zn+2] [Zn^2+] ; IC50 observed: 0.13 nM
